Data provenance is PubChem BioAssay (NCI).

tested on: DU-145 prostate; assay: NCI tumour cell line growth inhibition, 48 h
Endpoint Name: TGI (µM)
Provide only the numeric value, understood in µM.

                                   molecule  unit_abbrev  recorded_value
0  Cc1ccc(C2CC(c3ccc(NC(=O)Nc4ccccc4)cc3)=NN2c2ccc(S(N)(=O)=O)cc2)cc1 (centres undefined)           µM              23

Hello, please tell me recorded TGI for this one: CC(=C(c1ccc(OCCN2CCCCCC2)cc1)c1ccc(OCCN2CCCCCC2)cc1)c1ccc(Cl)cc1
10.4

====

In this section we review reported TGI values for a set of molecules.
test system: MDA-MB-468 breast; assay: NCI tumour cell line growth inhibition, 48 h
Provide only the numeric value, understood in µM.

Here are 4 molecules together with their reported answers.
>>> print(df.to_string())
                                   molecule    measured_target  endpoint_name  recorded_value
0       O=[N+]([O-])c1cc[n+]([O-])c2ccccc12  MDA-MB-468 breast            TGI           0.324
1  Oc1c(C(Nc2ccccc2Br)c2ccccc2)ccc2cccnc12 (stereo unspecified)  MDA-MB-468 breast            TGI            6.12
2  O=C(NCCN1CCOCC1)OCc1nc2nc(Cl)nc(N3CCOCC3)c2[nH]1  MDA-MB-468 breast            TGI            3.79
3  COc1ccc(/C=C(/c2ccccc2)[N+](=O)[O-])c(OC)c1  MDA-MB-468 breast            TGI             3.4

Write down measured TGI (MDA-MB-468 breast) for this molecule. O=C(CCN1CCCC1)Nc1ccc2c(NCc3ccccc3)c3ccccc3nc2c1
1.06

Write down measured TGI (MDA-MB-468 breast) for this molecule. COc1ccc(-c2cc(=O)n(-c3nc4ccccc4[nH]3)[nH]2)cc1OC
44.7

====

tested on: MDA-MB-468 breast; assay: NCI tumour cell line growth inhibition, 48 h; in the data active means GI50 below about 0.43 µM; inactive means the rest
Tick one outcome: active, inactive

In [3]: df
Out[3]:
                            chemical_smiles  category
0  O=C(NCCN1CCOCC1)OCc1nc2nc(Cl)nc(N3CCOCC3)c2[nH]1    active
1  C/C(=C\c1ccn(-c2ccccc2N)n1)[C@@H]1C[C@@H]2O[C@]2(C)CCC[C@H](C)[C@H](O)[C@@H](C)C(=O)C(C)(C)[C@@H](O)CC(=O)O1    active
2  COc1ccc(/C=C(/c2ccccc2)[N+](=O)[O-])c(OC)c1  inactive
3  COc1ccc(C(=O)Cn2c(C(=O)c3ccccc3)nc3ccccc32)cc1  inactive

Now take the following compound into account.
For c1ccc(-c2nn3c(c2-c2ccnc4cc(OCCN5CCOCC5)ccc24)CCC3)nc1 , which call appears in the assay record?
inactive

====

tested on: MDA-MB-468 breast; experiment: NCI tumour cell line growth inhibition, 48 h; in the data active = GI50 below about 0.43 µM; inactive = the rest
Tick one outcome: active, inactive

Answered cases to consult:
                                   molecule  category
0  N#Cc1nc(-c2ccc(F)cc2)oc1S(=O)(=O)N1CCCCC1  inactive
1  CC(=C(c1ccc(OCCN2CCCCCC2)cc1)c1ccc(OCCN2CCCCCC2)cc1)c1ccc(Cl)cc1  inactive
2  O=C(O)C[C@H](O)C[C@H](O)/C=C/c1c(C2CC2)nc2ccccc2c1-c1ccc(F)cc1  inactive
3  CC(C)(C)c1ccc(C(O)CCCN2CCC(C(O)(c3ccccc3)c3ccccc3)CC2)cc1 (stereo not given)  inactive
4  COc1c(C(C)=O)c(OCCCCOc2c(C(C)=O)c(OC)c3ccoc3c2OC)c(OC)c2occc12  inactive

For COc1ccc(-c2cc(=O)n(-c3nc4ccccc4[nH]3)[nH]2)cc1OC , which call appears in the assay record?
inactive

For COC(=O)c1cc(-c2ccccc2)[nH]c1N/N=C/c1c(Cl)cccc1Cl , which call appears in the assay record?
active

For C=CC(=O)N1CCC(c2ccc(C(N)=O)c(-c3ccc(Oc4ccccc4)cc3)n2)CC1 , which call appears in the assay record?
inactive

For Cc1ccc2nc3ccccc3c(NCc3ccc(Cl)cc3)c2c1 , which call appears in the assay record?
inactive

For CCn1c(=O)c2nc(SC)sc2n(-c2ccc(C)cc2)c1=O , which call appears in the assay record?
inactive
